Hey, just so you know, these numbers are from PubChem BioAssay (Tox21).

- assay: qHTS assay to identify small molecule HDAC inhibitors - cell viability counter screen (AID 1259365); further: on the % scale 0 is the no-effect control and ±100 the full control effect; nearly all actives have a fitted effect of over 50% in size
- experimental-parameters: HCT-116 viability, CellTiter-Glo ATP luminescence, 2 h; series mostly up to 92.4 µM
Calls of active or inactive are those of the source. The call rests on the fitted dose curve; in most records, active means well fitted cell-killing curve with a large enough effect in the repeat runs; inconclusive means weak or mixed curves, or effect the other way; inactive means flat fitted curve, though single readings scatter.
value-kind: activity change, negative = cytotoxicity

Answered cases to consult:
compound: O[C@@H](c1cc(C(F)(F)F)nc2c(C(F)(F)F)cccc12)[C@H]1CCCCN1
activity change, negative = cytotoxicity: inactive
--
compound: C=C/C=C/C=C/CCCCC
activity change, negative = cytotoxicity: -0.499% [at 19 µM] (inactive)
--
compound: CCCC(=O)OCC(COC(=O)CCC)OC(=O)CCC
activity change, negative = cytotoxicity: inactive
--
compound: Nc1cc(Cl)c([N+](=O)[O-])cc1O
activity change, negative = cytotoxicity: inactive

Moving on to the next compound.
-- ask Please list activity change, negative = cytotoxicity recorded for the compound Cc1cc(=O)[nH]c(=O)[nH]1
-- reply inactive

----------
- assay: qHTS assay to identify small molecule agonists of the estrogen related receptor (ERR) signaling pathway from Tox21 library (AID 1224849); further: on the % scale 0 is the no-effect control and ±100 the full control effect; nearly all actives have a fitted effect of over 15% in size
- experimental-parameters: ERR reporter cell line, ONE-Glo luciferase, 18 h; at 92.4 µM (top of the series) unless noted
Calls of active or inactive are those of the source. Calls come from the whole dose curve.
Valid outcomes are listed here; reply with one: 1.0 = active, 0.0 = inactive

Study these solved cases before continuing.
compound: CC1=CCC(=O)O1
label-value: 0.0

compound: CCc1c(Br)c(Br)c(Br)c(Br)c1Br
label-value: 0.0

compound: COC(=O)NCCC[Si](OC)(OC)OC
label-value: 0.0

compound: C=CC(=O)OCCC#N
label-value: 1.0

compound: O=C1c2c(O)ccc(O)c2C(=O)c2c(NCCNCCO)ccc(NCCNCCO)c21
label-value: 0.0

compound: CCCCCCCCCCCCCCCC
label-value: 0.0

compound: CCCCCCCC/C=C/CCCOC(C)=O
label-value: 0.0

compound: O=C(NO)c1ccccc1
label-value: 0.0

compound: CCOC(OCC)C(=O)c1ccccc1
label-value: 0.0

compound: C=C(C)CCCC
label-value: 0.0

-- ask Hey, what did the test say about C=C1C(C)(C)[C@@]2(Cl)C(Cl)[C@]1(Cl)C(Cl)(Cl)C2(Cl)Cl (stereo partly drawn) ?
-- reply 0.0

-- ask Just curious, what result did CC(COC(=O)c1ccccc1)OC(=O)c1ccccc1 (stereo not drawn) get here?
-- reply 0.0

-- ask What call does the record list for O[C@@H](c1cc(C(F)(F)F)nc2c(C(F)(F)F)cccc12)[C@H]1CCCCN1 ?
-- reply 0.0

-- ask I would be grateful if you could indicate the recorded call for CCCCCCCCCCCCN(CCO)CCO .
-- reply 0.0

----------
- tested-on: Retinoic acid receptor RXR-alpha (Homo sapiens) (UniProt P19793)
- Sequence (P19793 whole entry, looked up): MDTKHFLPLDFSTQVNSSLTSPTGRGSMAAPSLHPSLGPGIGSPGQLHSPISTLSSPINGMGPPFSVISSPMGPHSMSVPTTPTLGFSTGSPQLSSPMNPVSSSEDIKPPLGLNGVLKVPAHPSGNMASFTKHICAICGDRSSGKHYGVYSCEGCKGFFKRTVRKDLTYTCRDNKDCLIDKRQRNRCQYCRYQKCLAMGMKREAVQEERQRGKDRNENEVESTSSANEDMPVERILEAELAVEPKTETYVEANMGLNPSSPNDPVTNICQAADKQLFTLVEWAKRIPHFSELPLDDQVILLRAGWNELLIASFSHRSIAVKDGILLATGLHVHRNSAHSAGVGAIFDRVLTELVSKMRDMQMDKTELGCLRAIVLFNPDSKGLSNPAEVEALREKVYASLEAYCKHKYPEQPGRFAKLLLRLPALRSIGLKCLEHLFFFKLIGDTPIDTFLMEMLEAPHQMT
- assay: qHTS assay to identify small molecule agonists of the RXR signaling pathway (AID 1159527); further: on the % scale 0 is the no-effect control and ±100 the full control effect; nearly all actives have a fitted effect of over 35% in size
- experimental-parameters: HEK293T RXRa-UAS-bla, beta-lactamase ratio, 16 h; series mostly up to 76.8 µM
Results filed as inconclusive are left out. The source made the active and inactive calls. Calls follow the shape of the full dose curve.
value-kind: outcome

compound: Brc1ccccn1
outcome: inactive

compound: CC1CNCC(C)O1 (centres undefined)
outcome: inactive

compound: CN1[C@@H]2CC[C@@H]1CC(OC(=O)C(CO)c1ccccc1)C2 (some centres undefined)
outcome: inactive

compound: Cc1ccc(-n2[nH]c(C)c(N=Nc3cccc(-c4cccc(C(=O)O)c4)c3O)c2=O)cc1C
outcome: inactive

compound: C[Si](C)(C)Cl
outcome: inactive

-- ask Entry Nc1cc(Cl)c([N+](=O)[O-])cc1O needs its outcome filled in; supply it.
-- reply inactive

-- ask Write down outcome measured for item CN(C)CCN1CCOCC1
-- reply inactive

-- ask Identify the reported outcome for the following entry. COc1ccccc1C=O
-- reply inactive

-- ask Please list outcome recorded for the compound CCc1cccc(CC)c1NC(=O)C(=O)O
-- reply inactive

----------
- assay: qHTS RealTime-Glo MT Cell Viability Assay in HepG2 cells - 32 hour (AID 1224877); further: nearly all actives have a fitted effect of over 55% in size
- experimental-parameters: RealTime-Glo luminescence; series mostly up to 76.8 µM
- From the text: U.S. Tox21 Program National Center for Advancing Translational Sciences [NCATS] NIH Chemical Genomics Center [NCGC] U.S. Environmental Protection Agency [EPA] National Institutes of Environmental Health Sciences [NIEHS] National Toxicology Program [NTP] U.S. Food and Drug Administration [FDA] Tox21 Assay Overview: Measure of cell viability is critical in the cell-base assay. Analysis of cell viability is necessary for the characterization of cell responses to cytotoxic drugs and environmental stress. […]
Inconclusive results are not listed. The source made the active and inactive calls. Calls follow the shape of the dose curve; as a rule, active = well fitted cell-killing curve with a large enough effect in the repeat runs; inconclusive = weak or mixed curves; inactive = flat fitted curve, though single readings scatter.
Lab note: assign the record to one of label 1 (active), label 0 (inactive)

Solved cases (3 shown):
molecule: C=CC(=O)OCCC#N
label-value: label 0

molecule: CCCCOc1ccc(C(=O)CCN2CCCCC2)cc1
label-value: label 1

molecule: Clc1nc2ccccc2s1
label-value: label 0

-- ask For O=Nc1ccc(NO)cc1 , which call appears in the assay record?
-- reply label 0

-- ask State the result this test recorded for CCCC(O)C(O)CO (centres undefined) .
-- reply label 0

----------
- assay: Caspase-3/7 induction in CHO-K1 cells by small molecules, qHTS cell viability counter screen (AID 1346979); further: nearly all actives have a fitted effect of over 35% in size; further: potency means the concentration at half of the fitted maximal effect
- experimental-parameters: CellTiter-Fluor fluorescence, 17 h; series mostly up to 92.4 µM
- Excerpt: National Center for Advancing Translational Sciences [NCATS] NIH Chemical Genomics Center [NCGC] U.S. Environmental Protection Agency [EPA] National Institutes of Environmental Health Sciences [NIEHS] National Toxicology Program [NTP] U.S. Food and Drug Administration [FDA] Apoptosis is a process of programmed cell death and plays a central role in the development of multicellular organisms. […]
Results filed as inconclusive are left out. Active and inactive are the calls of the source. The call rests on the fitted dose curve; in most records, active means well fitted cell-killing curve with a large enough effect in the repeat runs; inconclusive means weak or mixed curves, or effect the other way; inactive means no such curve, though single readings can be large or run the other way.
value-kind: Potency

Solved entries:
molecule: COC(=O)CC(C)CCC=C(C)C (configuration not stated)
Potency: inactive
--
molecule: CC1CNCC(C)O1 (configuration not stated)
Potency: inactive
--
molecule: CCCCCCCCCCCCCc1ccccc1
Potency: inactive
--
molecule: CCN=C1C=CC(=C(c2ccc(N(CC)CC)cc2)c2ccc(N(CC)CC)cc2)c2ccccc21
Potency: 0.963 µM (active)
--
molecule: Clc1ccc(C(Cn2ccnc2)OCc2ccsc2Cl)c(Cl)c1 (configuration not stated)
Potency: 21.1 µM (active)

Please look at the following molecule next.
-- ask Give a short answer stating reported Potency for CC(C)C(=O)OCc1ccccc1 .
-- reply inactive

----------
- assay: qHTS assay to identify small molecule antagonists of the estrogen related receptor (ERR) signaling pathway from Tox21 library - cell viability counter screen (AID 1224834); further: on the % scale 0 is the no-effect control and ±100 the full control effect; nearly all actives have a fitted effect of over 30% in size
- experimental-parameters: ERR reporter cells viability, CellTiter-Fluor, 17.5 h; series mostly up to 92.4 µM
Results filed as inconclusive are left out. Active and inactive are the calls of the source. The call rests on the fitted dose curve; in most records, active means well fitted cell-killing curve with a large enough effect in the repeat runs; inconclusive means weak or mixed curves; inactive means flat fitted curve, though single readings scatter.
value-kind: viability change, negative = cytotoxic

compound-string: N[C@@H](CSSC[C@H](N)C(=O)O)C(=O)O
viability change, negative = cytotoxic: 4.71% [at 0.349 µM] (inactive)

compound-string: O=S(=O)(O)c1cc(S(=O)(=O)O)c2ccc3c(S(=O)(=O)O)cc(S(=O)(=O)O)c4ccc1c2c43
viability change, negative = cytotoxic: 4.03% [at 19 µM] (inactive)

compound-string: C=CC(=C)CC/C=C(\C)CCC=C(C)C
viability change, negative = cytotoxic: 0.736% [at 19 µM] (inactive)

compound-string: CCN1CCN(c2cc(-c3ccc(F)cc3)c3c(n2)CCCCCC3)CC1
viability change, negative = cytotoxic: 0.165% [at 19 µM] (inactive)

compound-string: O=S(O)O
viability change, negative = cytotoxic: 0.472% [at 19 µM] (inactive)

Okay, now this compound:
-- ask Given the compound C=C/C=C/C=C/CCCCC , write its reported viability change, negative = cytotoxic.
-- reply -1.2% [at 19 µM] (inactive)

----------
- assay: A CellTox Green Cytotoxicity Assay to monitor cytotoxicity in HEK293 cells - 8 hour (AID 1224884); further: nearly all actives have a fitted effect of over 35% in size; further: potency means the concentration at half of the fitted maximal effect
- experimental-parameters: CellTox Green fluorescence; series mostly up to 76.8 µM
Results filed as inconclusive are left out. Activity calls are given as the source filed them. The call rests on the fitted dose curve; in most records, active means well fitted activation curve with a large enough effect in the repeat runs; inconclusive means weak or mixed curves; inactive means flat fitted curve, though single readings scatter.
value-kind: Potency

Sample records with Potency:
molecule: CC(C)CCOCCC(C)C
Potency: inactive

molecule: Cc1ccc2ccc3cccc4ccc1c2c34
Potency: inactive

molecule: CC(C)=CCCC(C)CCOC(=O)C(C)C (centres undefined)
Potency: inactive

molecule: Cc1cccc(N(C)C)c1
Potency: inactive

molecule: CCOCN(C(=O)CS(=O)(=O)O)c1c(C)cccc1CC
Potency: inactive

-- ask Please report Potency for the following molecule: Cc1ccc(-n2[nH]c(C)c(N=Nc3cccc(-c4cccc(C(=O)O)c4)c3O)c2=O)cc1C
-- reply inactive

-- ask Specify reported Potency for the molecule shown: CCOC(/C=C(\C)CCC=C(C)C)OCC
-- reply inactive

-- ask Check the records and state Potency for NCCCCCCNCCCCCCN
-- reply inactive

-- ask Look up and state reported Potency for OCCCCl
-- reply inactive

-- ask Specify reported Potency for the molecule shown: CCCCCCCCCCCCOC(=O)c1cc(O)c(O)c(O)c1
-- reply 54.7 µM (active)

-- ask Recall and state the measured Potency for CCCCCCCCCCCC(=O)N(CC)CC .
-- reply inactive

-- ask Name the recorded Potency of the item CC(=O)Oc1ccc(C2(c3ccc(OC(C)=O)cc3)C(=O)Nc3ccccc32)cc1 in your answer.
-- reply inactive

-- ask Given CC(=O)c1ccccc1N , respond with its Potency.
-- reply inactive

-- ask Write down Potency measured for item CCC1CCCCC1
-- reply inactive
